Molecular target: human RXFP2 (human, UniProt Q8WXD0 1-754)
Sequence (Q8WXD0 whole entry): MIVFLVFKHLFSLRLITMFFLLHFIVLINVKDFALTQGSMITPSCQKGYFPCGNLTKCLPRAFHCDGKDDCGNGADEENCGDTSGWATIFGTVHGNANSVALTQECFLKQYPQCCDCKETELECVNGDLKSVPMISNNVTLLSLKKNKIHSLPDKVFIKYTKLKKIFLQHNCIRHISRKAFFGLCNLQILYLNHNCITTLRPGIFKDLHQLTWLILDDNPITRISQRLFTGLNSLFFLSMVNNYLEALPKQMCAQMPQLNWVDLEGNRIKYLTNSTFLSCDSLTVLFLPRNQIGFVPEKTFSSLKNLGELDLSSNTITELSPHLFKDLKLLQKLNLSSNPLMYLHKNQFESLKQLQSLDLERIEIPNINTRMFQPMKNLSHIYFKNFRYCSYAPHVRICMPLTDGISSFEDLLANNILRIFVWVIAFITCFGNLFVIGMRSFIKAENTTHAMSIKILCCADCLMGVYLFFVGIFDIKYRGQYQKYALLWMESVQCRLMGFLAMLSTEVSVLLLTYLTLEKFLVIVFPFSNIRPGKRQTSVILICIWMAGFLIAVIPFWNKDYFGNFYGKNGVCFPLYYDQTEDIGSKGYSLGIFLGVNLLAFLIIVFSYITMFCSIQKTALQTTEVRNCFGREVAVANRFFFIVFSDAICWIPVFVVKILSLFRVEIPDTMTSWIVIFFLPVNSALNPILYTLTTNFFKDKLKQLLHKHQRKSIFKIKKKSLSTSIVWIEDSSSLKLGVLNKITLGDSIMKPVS
Assay: cell-based or functional assay
metric-name: hRXFP2 EC50 (M), cAMP HTRF assay in CHO-K1 RXFP2 Gs cells

Lookup: Answer with the recorded hRXFP2 EC50 (M), cAMP HTRF assay in CHO-K1 RXFP2 Gs cells of Fc-TMΔTHTΔK_hRLX2_21-15AA (Fc fusion) GGGSACPPCPAPEFEGGPSVFLFPPKPKDTLMISRTPEVTCVVVDVSHEDPEVKFNWYVDGVEVHNAKTKPREEQYNSTYRVVSVLTVLHQDWLNGKEYKCKVSNKALPASIEKTISKAKGQPREPQVYTLPPSREEMTKNQVSLTCLVKGFYPSDIAVEWESNGQPENNYKTTPPVLDSDGSFFLYSKLTVDKSRWQQGNVFSCSVMHEALHNHYTQKSLSLSPGGGGGSGGGGSGGGGSGGGGGSQLYSALANKCCHVGCTKRSLARFCGGGGSGGGGSGGGGSSWMEEVIKLCGRELVRAQIAICGMSTWS only.
Found: > 6.78e-06 M

Lookup: Identify hRXFP2 EC50 (M), cAMP HTRF assay in CHO-K1 RXFP2 Gs cells associated with the binder hRLX2-Fc-TMΔTHTΔK_15-24AA (Fc fusion) QLYSALANKCCHVGCTKRSLARFCGGGGSGGGGSGGGGSSWMEEVIKLCGRELVRAQIAICGMSTWSAAAGGGGSGGGGSGGGGSGGGGSACPPCPAPEFEGGPSVFLFPPKPKDTLMISRTPEVTCVVVDVSHEDPEVKFNWYVDGVEVHNAKTKPREEQYNSTYRVVSVLTVLHQDWLNGKEYKCKVSNKALPASIEKTISKAKGQPREPQVYTLPPSREEMTKNQVSLTCLVKGFYPSDIAVEWESNGQPENNYKTTPPVLDSDGSFFLYSKLTVDKSRWQQGNVFSCSVMHEALHNHYTQKSLSLSPG
Found: > 3.09e-07 M
